Entry source: the supplement of paper PMC7877785

experiment: self-splicing fitness, log relative to wild type (ln ratio); higher = more splicing; Tetrahymena group I intron in knt gene, E. coli kanamycin selection, DiMSum; sequences stand for … in CUCUCU…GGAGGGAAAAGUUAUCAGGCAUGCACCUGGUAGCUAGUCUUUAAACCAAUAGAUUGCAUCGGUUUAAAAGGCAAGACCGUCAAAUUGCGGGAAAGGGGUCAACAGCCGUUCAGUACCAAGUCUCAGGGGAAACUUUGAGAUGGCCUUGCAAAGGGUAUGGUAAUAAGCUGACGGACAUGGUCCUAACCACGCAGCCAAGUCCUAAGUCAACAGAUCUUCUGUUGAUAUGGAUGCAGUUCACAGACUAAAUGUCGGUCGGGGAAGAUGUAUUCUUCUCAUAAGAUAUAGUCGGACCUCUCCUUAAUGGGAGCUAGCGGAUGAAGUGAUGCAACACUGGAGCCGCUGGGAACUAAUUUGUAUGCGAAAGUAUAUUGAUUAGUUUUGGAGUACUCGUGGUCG; conditions: 37 °C;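 note: selection with 25 µg/mL kanamycin versus none on LB agar overnight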
Recorded self-splicing fitness (ln), one value per entry.
Endpoint: self-splicing fitness (ln)

INSERT INTO measurements (polymer_sequence, endpoint, val) VALUES
  ('GGCCAGCAAUAUUACGAGUU', 'self-splicing fitness (ln)', -1),
  ('CCUUAGCAAUAUUACGCAUA', 'self-splicing fitness (ln)', -2.24),
  ('CAUGAGCAAUAUUACGCUUU', 'self-splicing fitness (ln)', -3.02),
  ('GACAAGCAAUAUUACGGCUA', 'self-splicing fitness (ln)', -0.187),
  ('UAUCAGCAAUAUUACGACUA', 'self-splicing fitness (ln)', 0.517),
  ('ACUGAGCAAUAUUACGCUUU', 'self-splicing fitness (ln)', -1.37),
  ('UGGAAGCAAUAUUACGAUAU', 'self-splicing fitness (ln)', -2.39),
  ('GUGCAGCAAUAUUACGGCAC', 'self-splicing fitness (ln)', -1.46),
  ('ACACAGCAAUAUUACGCUGA', 'self-splicing fitness (ln)', -1.47),
  ('GUUCAGCAAUAUUACGCUCC', 'self-splicing fitness (ln)', -0.544),
  ('GACGAGCAAUAUUACGUAAU', 'self-splicing fitness (ln)', -2.16),
  ('AUGGAGCAAUAUUACGGACA', 'self-splicing fitness (ln)', -1.91),
  ('AACCAGCAAUAUUACGAACU', 'self-splicing fitness (ln)', 0.35),
  ('CUCAAGCAAUAUUACGCCGU', 'self-splicing fitness (ln)', -1.88),
  ('UCCAAGCAAUAUUACGACGU', 'self-splicing fitness (ln)', 0.0245),
  ('GCGUAGCAAUAUUACGUGGA', 'self-splicing fitness (ln)', -2.23),
  ('AACUAGCAAUAUUACGACCC', 'self-splicing fitness (ln)', -0.568),
  ('UAUUAGCAAUAUUACGCAGA', 'self-splicing fitness (ln)', -1.63),
  ('AAAGAGCAAUAUUACGUCUG', 'self-splicing fitness (ln)', -2.36),
  ('CUGGAGCAAUAUUACGCUUA', 'self-splicing fitness (ln)', -2.32),
  ('UAACAGCAAUAUUACGGGUC', 'self-splicing fitness (ln)', -2.62),
  ('UAUUAGCAAUAUUACGGCCU', 'self-splicing fitness (ln)', -0.611),
  ('CGUAAGCAAUAUUACGAACC', 'self-splicing fitness (ln)', -1.46),
  ('UGCCAGCAAUAUUACGACAU', 'self-splicing fitness (ln)', -1.9),
  ('UUUCAGCAAUAUUACGAUCG', 'self-splicing fitness (ln)', -0.152),
  ('CGUCAGCAAUAUUACGCCAA', 'self-splicing fitness (ln)', -1.73),
  ('GUAAAGCAAUAUUACGUUAU', 'self-splicing fitness (ln)', -1.23),
  ('UCUUAGCAAUAUUACGUCGG', 'self-splicing fitness (ln)', -0.0675),
  ('AAGCAGCAAUAUUACGCGGA', 'self-splicing fitness (ln)', -1.46),
  ('CGGUAGCAAUAUUACGAUCA', 'self-splicing fitness (ln)', 0.196),
  ('CCGGAGCAAUAUUACGGACA', 'self-splicing fitness (ln)', -2.97),
  ('UAUAAGCAAUAUUACGCCUC', 'self-splicing fitness (ln)', -2.08),
  ('AGGUAGCAAUAUUACGAUUC', 'self-splicing fitness (ln)', -0.359),
  ('CUCCAGCAAUAUUACGUAGC', 'self-splicing fitness (ln)', -2.36);
